target: Bcl-2-like protein 1 (Homo sapiens); assay: Inhibition of Bcl-XL
Sequence (Q07817 whole entry): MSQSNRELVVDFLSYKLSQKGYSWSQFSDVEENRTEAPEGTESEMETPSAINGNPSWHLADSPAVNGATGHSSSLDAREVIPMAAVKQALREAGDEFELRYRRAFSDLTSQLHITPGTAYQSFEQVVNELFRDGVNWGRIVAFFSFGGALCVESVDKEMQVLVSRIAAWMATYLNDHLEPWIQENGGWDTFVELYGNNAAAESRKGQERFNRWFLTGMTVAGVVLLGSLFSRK
attributeMeasured: log10 of EC50 (log10 of the value in nM)
In plain terms, each number is the log10 of measured EC50 in nM.

log10 of EC50 reading for CN(C)CCC(CSc1ccccc1)Nc1ccc(S(=O)(=O)NC(=O)c2ccc(N3CCN(Cc4ccccc4-c4ccccc4Cl)CC3)cc2)cc1[N+](=O)[O-] (stereo not given) : 1.75

log10 of EC50 reading for CN(C)CCC(CSc1ccccc1)Nc1ccc(S(=O)(=O)NC(=O)c2ccc(N3CCC(=Cc4ccccc4C#N)CC3)cc2)cc1[N+](=O)[O-] (stereo not given) : 3.04

log10 of EC50 reading for CN(C)CCC(CSc1ccccc1)Nc1ccc(S(=O)(=O)NC(=O)c2ccc(N3CCN(Cc4ccccc4-c4ccccc4)CC3)cc2)cc1[N+](=O)[O-] (stereo not given) : 1.26

log10 of EC50 reading for CN(C)CCC(CSc1ccccc1)Nc1ccc(S(=O)(=O)NC(=O)c2ccc(N3CCC(=Cc4ccccn4)CC3)cc2)cc1[N+](=O)[O-] (stereo not given) : 2.74

log10 of EC50 reading for COC1(Cc2cccc(Cl)c2)CCN(c2ccc(C(=O)NS(=O)(=O)c3ccc(NC(CCN(C)C)CSc4ccccc4)c([N+](=O)[O-])c3)cc2)CC1 (stereo not given) : 2.40

log10 of EC50 reading for CN(C)CCC(CSc1ccccc1)Nc1ccc(S(=O)(=O)NC(=O)c2ccc(N3CCN(Cc4ccccc4-c4cccc(Cl)c4)CC3)cc2)cc1[N+](=O)[O-] (stereo not given) : 2.26

log10 of EC50 reading for COC1(Cc2ccccc2Br)CCN(c2ccc(C(=O)NS(=O)(=O)c3ccc(NC(CCN(C)C)CSc4ccccc4)c([N+](=O)[O-])c3)cc2)CC1 (stereo not given) : 2.00

log10 of EC50 reading for CN(C)CCC(CSc1ccccc1)Nc1ccc(S(=O)(=O)NC(=O)c2ccc(N3CCN(Cc4ccccc4C(F)(F)F)CC3)cc2)cc1[N+](=O)[O-] (stereo not given) : 2.59

log10 of EC50 reading for CN(C)CCC(CSc1ccccc1)Nc1ccc(S(=O)(=O)NC(=O)c2ccc(N3CCC(=Cc4cccnc4)CC3)cc2)cc1[N+](=O)[O-] (stereo not given) : 3.28

log10 of EC50 reading for COc1ccc(-c2ccccc2CN2CCN(c3ccc(C(=O)NS(=O)(=O)c4ccc(NC(CCN(C)C)CSc5ccccc5)c([N+](=O)[O-])c4)cc3)CC2)cc1 (stereo not given) : 1.48

log10 of EC50 reading for CN(C)CCC(CSc1ccccc1)Nc1ccc(S(=O)(=O)NC(=O)c2ccc(N3CCC(=Cc4ccccc4-c4ccccc4)CC3)cc2)cc1[N+](=O)[O-] (stereo not given) : 2.20

log10 of EC50 reading for COC1(CC2CCCCC2)CCN(c2ccc(C(=O)NS(=O)(=O)c3ccc(NC(CCN(C)C)CSc4ccccc4)c([N+](=O)[O-])c3)cc2)CC1 (stereo not given) : 2.51

log10 of EC50 reading for COc1ccccc1CN1CCN(c2ccc(C(=O)NS(=O)(=O)c3ccc(NC(CCN(C)C)CSc4ccccc4)c([N+](=O)[O-])c3)cc2)CC1 (stereo not given) : 2.59

log10 of EC50 reading for COC1(Cc2ccc(Cl)cc2)CCN(c2ccc(C(=O)NS(=O)(=O)c3ccc(NC(CCN(C)C)CSc4ccccc4)c([N+](=O)[O-])c3)cc2)CC1 (stereo not given) : 2.60

log10 of EC50 reading for CN(C)CCC(CSc1ccccc1)Nc1ccc(S(=O)(=O)NC(=O)c2ccc(N3CCN(Cc4ccccc4-c4ccc(F)cc4)CC3)cc2)cc1[N+](=O)[O-] (stereo not given) : 2.11
